- TARGET_ENTITY: TcCYP51 (Trypanosoma cruzi, UniProt Q7Z1V1)
- Sequence (Q7Z1V1 whole entry): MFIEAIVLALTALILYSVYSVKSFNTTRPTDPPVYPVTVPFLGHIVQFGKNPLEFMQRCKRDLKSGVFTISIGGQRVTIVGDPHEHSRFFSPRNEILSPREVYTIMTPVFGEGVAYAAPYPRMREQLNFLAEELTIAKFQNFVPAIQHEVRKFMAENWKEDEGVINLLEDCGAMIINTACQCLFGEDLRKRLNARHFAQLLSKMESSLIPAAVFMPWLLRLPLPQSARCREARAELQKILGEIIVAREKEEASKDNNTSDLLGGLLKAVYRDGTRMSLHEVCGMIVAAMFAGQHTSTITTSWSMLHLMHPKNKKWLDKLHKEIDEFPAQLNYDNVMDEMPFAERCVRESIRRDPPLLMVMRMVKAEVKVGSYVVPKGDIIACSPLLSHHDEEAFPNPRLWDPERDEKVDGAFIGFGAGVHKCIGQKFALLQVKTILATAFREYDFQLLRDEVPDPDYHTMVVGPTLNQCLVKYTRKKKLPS
Response field label: string, one of fulfilled (Kd strictly below 20 nM) or not fulfilled.

- MOL_SMILES: "O=C(N[C@H](Cc1c[nH]c2ccccc12)C(=O)Nc1ccncc1)c1ccc(N2CCN(S(=O)(=O)c3ccc(C(F)(F)F)cc3)CC2)cc1F"
  CLASSIFICATION: "fulfilled"
- MOL_SMILES: "CS(=O)(=O)N1CCN(c2ccc(C(=O)N[C@H](Cc3c[nH]c4ccccc34)C(=O)Nc3ccncc3)c(F)c2)CC1"
  CLASSIFICATION: "fulfilled"
- MOL_SMILES: "N#Cc1ccc(S(=O)(=O)N2CCN(c3ccc(C(=O)N[C@H](Cc4c[nH]c5ccccc45)C(=O)Nc4ccncc4)c(F)c3)CC2)cc1"
  CLASSIFICATION: "not fulfilled"
- MOL_SMILES: "O=C(N[C@H](Cc1c[nH]c2ccccc12)C(=O)Nc1ccncc1)c1ccc(N2CCN(S(=O)(=O)c3ccsc3C(=O)O)CC2)cc1F"
  CLASSIFICATION: "fulfilled"
- MOL_SMILES: "O=C(N[C@H](Cc1c[nH]c2ccccc12)C(=O)Nc1ccncc1)c1ccc(N2CCN(S(=O)(=O)C3CC3)CC2)cc1F"
  CLASSIFICATION: "not fulfilled"

Query :: Kd strictly < 20 nM for this molecule? O=C(N[C@H](Cc1c[nH]c2ccccc12)C(=O)Nc1ccncc1)c1ccc(N2CCN(S(=O)(=O)c3cccs3)CC2)cc1F
Result :: fulfilled

Query :: And O=C(N[C@H](Cc1c[nH]c2ccccc12)C(=O)Nc1ccncc1)c1ccc(N2CCN(S(=O)(=O)c3cccnc3)CC2)cc1F ?
Result :: fulfilled
